// reported DuctApe activity index for each item listed
tested on: Pectobacterium parmentieri SCC3193; assay: DuctApe activity index (growth/respiration on compound as sole nutrient source, blank-subtracted) (activity index (0-3)); higher = stronger utilization of the compound, active = 3 or more; conditions: nutrient role (plate category): nitrogen
MEASURED ENDPOINT: DuctApe activity index

INSERT INTO assay_data (compound, tested_target, measured_endpoint, reading) VALUES
  ('Nc1ccn([C@@H]2O[C@H](CO)[C@@H](O)[C@H]2O)c(=O)n1 [Cytidine]', 'Pectobacterium parmentieri SCC3193', 'DuctApe activity index', 3),
  ('O=C1NC(=O)C(=O)N1 [Parabanic acid]', 'Pectobacterium parmentieri SCC3193', 'DuctApe activity index', 0),
  ('C[C@H](N)C(=O)N[C@@H](CC(=O)O)C(=O)O', 'Pectobacterium parmentieri SCC3193', 'DuctApe activity index', 1),
  ('C[C@@H](N)C(=O)O [D-Alanine]', 'Pectobacterium parmentieri SCC3193', 'DuctApe activity index', 0);

###

test system: Pectobacterium parmentieri SCC3193; test: DuctApe activity index (growth/respiration on compound as sole nutrient source, blank-subtracted) (activity index (0-3)); higher = stronger utilization of the compound, active = 3 or more; conditions: nutrient role (plate category): carbon
Classes used: active, inactive

INSERT INTO assay_data (molecule, category) VALUES
  ('OC[C@@H](O)[C@@H](O)[C@H](O)[C@@H](O)CO', 'inactive'),
  ('OCC(O)C(O)C(O)CO (stereo not given)', 'inactive'),
  ('N[C@@H](Cc1ccccc1)C(=O)O', 'inactive'),
  ('NCC(=O)N[C@@H](CCC(=O)O)C(=O)O', 'inactive'),
  ('O=C(O)C[C@H](O)C(=O)O', 'active'),
  ('OC1OC[C@@H](O)[C@@H](O)[C@@H]1O (stereo not given in full)', 'inactive'),
  ('OC[C@H]1O[C@@H](Oc2ccc(O)cc2)[C@H](O)[C@@H](O)[C@@H]1O', 'active'),
  ('N[C@@H](C(=O)O)[C@@H](O)[C@H](O)[C@H](O)CO', 'inactive'),
  ('O=C[C@H](O)[C@H](O)[C@@H](O)CO', 'inactive'),
  ('NC(=O)C[C@H](N)C(=O)O', 'active');

###

system: Pectobacterium parmentieri SCC3193; experiment: DuctApe activity index (growth/respiration on compound as sole nutrient source, blank-subtracted) (activity index (0-3)); higher = stronger utilization of the compound, active = 3 or more; conditions: nutrient role (plate category): carbon
Classes used: active, inactive

INSERT INTO assay_data (compound, category) VALUES
  ('O=C(O)/C=C/C(=O)O', 'active'),
  ('CCCCCCCCCC(=O)O', 'inactive'),
  ('N[C@H]1C(O)O[C@H](CO)[C@@H](O)[C@@H]1O (some centres not stated)', 'active'),
  ('CO[C@@H]1O[C@H](CO)[C@H](O)[C@H](O)[C@H]1O [b-Methyl-D-Galactoside]', 'inactive'),
  ('CC[C@H](C)[C@H](N)C(=O)O', 'inactive'),
  ('O=C(O)C(=O)O', 'inactive'),
  ('N[C@@H](Cc1c[nH]cn1)C(=O)O', 'inactive'),
  ('CO[C@H]1O[C@H](CO)[C@@H](O)[C@H](O)[C@H]1O [a-Methyl-D-Glucoside]', 'inactive'),
  ('OC[C@H]1O[C@H](O[C@H]2[C@H](O)[C@@H](O)[C@@H](O[C@H]3[C@H](O)[C@@H](O)[C@@H](O)O[C@@H]3CO)O[C@@H]2CO)[C@H](O)[C@@H](O)[C@@H]1O', 'active'),
  ('OC[C@H]1O[C@@H](O[C@@H]2[C@@H](CO)OC(O)(CO)[C@H]2O)[C@H](O)[C@@H](O)[C@H]1O (mixture of isomers)', 'active'),
  ('OC[C@H]1OC(O)[C@H](O)[C@@H](O)[C@@H]1O (some centres not stated)', 'active'),
  ('COC(=O)CCC(=O)O [Mono-Methylsuccinate]', 'inactive'),
  ('O=C(O)[C@@H](O)[C@H](O)[C@H](O)[C@@H](O)C(=O)O', 'active'),
  ('CCCCCC(=O)O', 'inactive'),
  ('CCC(=O)C(=O)O', 'inactive'),
  ('O=C(O)[C@@H](O)[C@@H](O)[C@H](O)[C@@H](O)C(=O)O', 'active'),
  ('OC[C@@H](O)[C@H](O)[C@@H](O)CO', 'inactive');

###

tested on: Pectobacterium parmentieri SCC3193; assay: DuctApe activity index (growth/respiration on compound as sole nutrient source, blank-subtracted) (activity index (0-3)); higher = stronger utilization of the compound, active = 3 or more; details: nutrient role (plate category): nitrogen
Quick list: DuctApe activity index per entry.
MEASURED ENDPOINT: DuctApe activity index

INSERT INTO assay_data (molecule, measured_endpoint, reading) VALUES
  ('NC=O [Formamide]', 'DuctApe activity index', 0),
  ('CC(O)C(N)=O (racemic) [DL-Lactamide]', 'DuctApe activity index', 0),
  ('N[C@H]1C(O)O[C@H](CO)[C@H](O)[C@@H]1O (stereo partly drawn)', 'DuctApe activity index', 0);

###

Measured DuctApe activity index of individual entries
test system: Pectobacterium parmentieri SCC3193; assay: DuctApe activity index (growth/respiration on compound as sole nutrient source, blank-subtracted) (activity index (0-3)); higher = stronger utilization of the compound, active = 3 or more; conditions: nutrient role (plate category): phosphate & sulphur
MEASURED ENDPOINT: DuctApe activity index

INSERT INTO measurements (compound, reading) VALUES
  ('CS(=O)(=O)CC[C@H](N)C(=O)O', 0),
  ('O=P(O)(O)O[C@H]1[C@H](OP(=O)(O)O)[C@@H](OP(=O)(O)O)[C@H](OP(=O)(O)O)[C@@H](OP(=O)(O)O)[C@H]1OP(=O)(O)O [Inositol Hexaphosphate]', 0),
  ('N[C@@H](CCC(=O)N[C@@H](CS)C(=O)NCC(=O)O)C(=O)O', 1),
  ('CSCC[C@H](N)C(=O)O', 1),
  ('O=S(O)(O)=S [Thiosulfate]', 0),
  ('N[C@@H](COP(=O)(O)O)C(=O)O', 2);

###

system: Pectobacterium parmentieri SCC3193; test: DuctApe activity index (growth/respiration on compound as sole nutrient source, blank-subtracted) (activity index (0-3)); higher = stronger utilization of the compound, active = 3 or more; conditions: nutrient role (plate category): carbon
Each entry below carries its reported DuctApe activity index.
MEASURED ENDPOINT: DuctApe activity index

INSERT INTO assay_data (compound, reading) VALUES
  ('CO[C@H]1O[C@H](CO)[C@H](O)[C@H](O)[C@H]1O [a-Methyl-D-Galactoside]', 3),
  ('O=C(CO)[C@@H](O[C@H]1O[C@H](CO)[C@@H](O)[C@H](O)[C@H]1O)[C@H](O)[C@H](O)CO', 0),
  ('N[C@H](CO)C(=O)O', 0),
  ('O=C(CO)[C@@H](O)[C@H](O)[C@H](O)CO[C@H]1O[C@H](CO)[C@@H](O)[C@H](O)[C@H]1O', 0),
  ('O=C(O)CC(O)C(=O)O (racemic)', 3),
  ('O=P(O)(O)OC[C@H](O)CO (racemic) [DL-a-Glycerol Phosphate]', 3),
  ('O=C(O)[C@H]1OC(O)[C@H](O)[C@@H](O)[C@@H]1O (some centres undefined)', 0),
  ('O=C(O)[C@@H]1C[C@@H](O)CN1 [Hydroxy-L-Proline]', 0),
  ('OC[C@H]1O[C@H](O[C@H]2O[C@H](CO)[C@@H](O)[C@H](O)[C@H]2O)[C@H](O)[C@@H](O)[C@@H]1O', 3),
  ('C[C@@H]1OC(O)[C@H](O)[C@H](O)[C@H]1O (some centres undefined)', 3),
  ('CC(C)[C@H](N)C(=O)O', 0),
  ('NCC(=O)O', 0),
  ('NCCC[C@H](N)C(=O)O', 0),
  ('CC(=O)N[C@@H]1C(O)O[C@H](CO)[C@@H](O)[C@@H]1O (some centres undefined)', 0);
